test: Index of bioavailability (plasma TT AUC, p.o. vs i.v.)
recorded conditions: rats, adjusted for dose
parameter measured: Index of Bioavailability, % Relative Activity (%)

compound	recorded value
Cl.N=C(N)NCCC[C@@H](C=O)NC(=O)[C@@H]1CCCN1C(=O)[C@@H](Cc1ccccc1)NS(=O)(=O)c1ccc(C(=O)O)cc1 [Example 18, 4-(HO2 C)-C6 H4 SO2 -D-Phe-Pro-Arg-H.HCl]	13
CCCCS(=O)(=O)N[C@H](Cc1ccccc1)C(=O)N1CCC[C@H]1C(=O)N[C@H](C=O)CCCNC(=N)N.Cl [Example 10, n-Bu-SO2 -D-Phe-Pro-Arg-H.HCl]	18
CC(C)S(=O)(=O)N[C@H](Cc1ccccc1)C(=O)N1CCC[C@H]1C(=O)N[C@H](C=O)CCCNC(=N)N.Cl [Example 11, i-Pr-SO2 -D-Phe-Pro-Arg-H-HCl]	10
CCOC(=O)N[C@H](Cc1ccccc1)C(=O)N1CCC[C@H]1C(=O)N[C@H](C=O)CCCNC(=N)N.Cl [Example 33, EtOCO-D-Phe-Pro-Arg-H.HCl]	14
Cl.N=C(N)NCCC[C@@H](C=O)NC(=O)[C@@H]1CCCN1C(=O)[C@@H](Cc1ccccc1)NC(=O)c1cccnc1 [Example 3, N-Nicotinoyl-D-Phe-Pro-Arg-H.HCl]	3
